TARGET_OR_SYSTEM: T1, rat VPAC2 receptor (rat, UniProt P35000 23-437)
T1 sequence (looked up): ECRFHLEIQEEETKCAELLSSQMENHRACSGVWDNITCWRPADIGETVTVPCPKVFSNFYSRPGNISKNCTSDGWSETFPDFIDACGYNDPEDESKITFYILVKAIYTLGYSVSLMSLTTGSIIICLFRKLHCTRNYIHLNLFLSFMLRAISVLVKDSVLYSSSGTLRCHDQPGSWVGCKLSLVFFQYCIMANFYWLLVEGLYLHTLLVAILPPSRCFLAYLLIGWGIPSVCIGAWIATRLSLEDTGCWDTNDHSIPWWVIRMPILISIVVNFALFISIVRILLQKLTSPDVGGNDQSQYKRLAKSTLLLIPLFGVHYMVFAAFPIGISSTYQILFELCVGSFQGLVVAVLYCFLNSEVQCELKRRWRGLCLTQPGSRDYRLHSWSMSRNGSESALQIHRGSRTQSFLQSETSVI
TEST_PROTOCOL: cell-based or functional assay
Square brackets hold non-standard residues; d marks the D form. Ends that are not written are not given here. Nle = CCCC[C@H](N)C(=O)O; Orn = NCCC[C@H](N)C(=O)O; Aib = CC(C)(N)C(=O)O
Could you please report measured EC50 for cAMP generation, DiscoveRx, CHO-PO cells for the items listed next?
Give just the numeric value; µM need not be written.

-- ask Fill blank: measured EC50 for cAMP generation, DiscoveRx, CHO-PO cells of the binder HSDAVFTENYTKLRKQ[Nle]AAKKYLNDLKQGGPSSGAPPPC (ends and bridges not checked; also: further groups not given here) [P239 (cyclic PEGylated VPAC2 receptor peptide agonist)] is ____.
-- reply 0.0112

-- ask Another binder: HSDAVFTENYT[Orn]LR[Aib]Q[Nle]AA[Orn]KYLNDL[Orn][Orn]GGPSSGAPPPC (also: cyclic by a side-chain bridge (lactam or disulfide), places not given here, PEGylated, site not given here) [P463 (cyclic PEGylated VPAC2 receptor peptide agonist)]
-- reply 0.182

-- ask Next binder up: HSDAVFTENYTKL[Aib]KQ[Nle]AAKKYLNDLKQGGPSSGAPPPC (ends and bridges not checked; also: further groups not given here) [P255 (cyclic PEGylated VPAC2 receptor peptide agonist)]
-- reply 0.0514

-- ask Can you check HSDAVFTENYTKLR[Aib]Q[Nle]AAKKYLNDLK[Aib]KGGPSSGAPPPC (also: further groups not given here) [P348 (cyclic PEGylated VPAC2 receptor peptide agonist)] next?
-- reply 0.00326

-- ask Please answer likewise for HSDAVFTENYTKLRKQ[Nle]AAKKYLNDLKKGGPSSGAPPPC (not fully specified (residue 39); ends and bridges not checked; also: further groups not given here) [P201 (cyclic PEGylated VPAC2 receptor peptide agonist)]
-- reply 0.0132

-- ask Now the same for HSDAVFTENYTKL[Aib]KQ[Nle]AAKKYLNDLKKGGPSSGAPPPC (ends and bridges not checked; also: further groups not given here) [P257 (cyclic PEGylated VPAC2 receptor peptide agonist)]
-- reply 0.0379

-- ask Try this binder next: HSDAVFTENYT[Orn]LR[Aib]Q[Nle]AA[Orn]KYLNDL[Orn][Orn]GGPSSGAPPPC (not fully specified (residue 39); also: cyclic, bridge type and places not given here, PEGylated, site not placed) [P376 (cyclic PEGylated VPAC2 receptor peptide agonist)]
-- reply 0.00913
